# System: Dd2
# measurement.notes: qHTS profiling for inhibitors of Plasmodium falciparum proliferation (AID 504749); further: nearly all actives have a fitted effect of over 60% in size
# test.parameters: P. falciparum in erythrocytes, SYBR Green DNA, 72 h; series mostly up to 28.7 µM
Inconclusive results are not listed. The source made the active and inactive calls. The call rests on the fitted dose curve; in most records, active means well fitted inhibition curve with a large enough effect; inconclusive means small, poorly fitted or top-dose-only effect; inactive means flat fitted curve, though single readings scatter.
Give one outcome, nothing more. List: YES = active, NO = inactive

Please review the following examples before continuing.
>>> discrete_label("COCC(=O)N(c1c(C)cccc1C)C(C)C(=O)OC (stereo unspecified)")
"NO"
>>> discrete_label("O=c1n(Cl)c(=O)n(Cl)c(=O)n1Cl")
"NO"
>>> discrete_label("CCOC(=O)NC(O)C(Cl)(Cl)Cl (stereo unspecified)")
"NO"
>>> discrete_label("O=C(O)c1nn(Cc2ccc(Cl)cc2Cl)c2ccccc12")
"NO"
>>> discrete_label("CN1C(=O)CN=C(c2ccccc2)c2cc([N+](=O)[O-])ccc21")
"NO"
>>> discrete_label("CCN(Cc1ccc(Cl)nc1)/C(=C/[N+](=O)[O-])NC")
"NO"
>>> discrete_label("CN(C)C(=S)SSC(=S)N(C)C")
"YES"
>>> discrete_label("OC(O)C(Cl)(Cl)Cl")
"NO"

State the result this test recorded for CCC1(c2ccccc2)CCC(=O)NC1=O (stereo unspecified) .
NO

GET /call?item= CC(C)C(Br)C(=O)NC(N)=O (stereo unspecified) returns the recorded outcome of this test.
NO

Hey, what did the test say about "c1ccc2nc(N3CCNCC3)ccc2c1" ?
NO

Lab log entry: "CCN(CC)CCOC(=O)C(C)(c1ccccc1)c1ccccc1" — outcome as called in the assay?
YES

Query: recorded result category for "CCC1(CC)C(=O)NC(=O)NC1=O" in this test
NO
